Data provenance is paper PMC8218635.

Recorded CC50 by entry
test system: Vero E6 cells; conditions: African green monkey

- Molecule: "CCNc1nc(C)cc(N2CCN(C(=O)c3ccc(F)cc3)CC2)n1 [CHVB-032]"
  Property Measured: "CC50"
  Val: "> 100 µM"
- Molecule: "CCC1=NC2C(N=NN2c2cccc(OC(C)C)c2)C(=O)N1 (stereo not shown) [MADTP-372]"
  Property Measured: "CC50"
  Val: "> 100 µM"
- Molecule: "Nc1ncnc2c1ncn2C1C(F)=C(CCO)C(O)C1O (stereo not shown) [FHNA, 6′-fluoro-homoneplanocin A]"
  Property Measured: "CC50"
  Val: "> 250 µM"

Let us move to another entry and its CC50.
Exercise: # CC50 lookup, item Nc1ncnc2c1ncn2[C@@H]1O[C@H](C[C@@H](N)CC[C@H](N)C(=O)O)[C@@H](O)[C@H]1O [Sinefungin, reference compound]
Solution: > 1000 µM

---

Biological target: wt SFV nsP1 (Semliki forest virus, UniProt P08411)
Sequence (P08411 1-537 limits assumed): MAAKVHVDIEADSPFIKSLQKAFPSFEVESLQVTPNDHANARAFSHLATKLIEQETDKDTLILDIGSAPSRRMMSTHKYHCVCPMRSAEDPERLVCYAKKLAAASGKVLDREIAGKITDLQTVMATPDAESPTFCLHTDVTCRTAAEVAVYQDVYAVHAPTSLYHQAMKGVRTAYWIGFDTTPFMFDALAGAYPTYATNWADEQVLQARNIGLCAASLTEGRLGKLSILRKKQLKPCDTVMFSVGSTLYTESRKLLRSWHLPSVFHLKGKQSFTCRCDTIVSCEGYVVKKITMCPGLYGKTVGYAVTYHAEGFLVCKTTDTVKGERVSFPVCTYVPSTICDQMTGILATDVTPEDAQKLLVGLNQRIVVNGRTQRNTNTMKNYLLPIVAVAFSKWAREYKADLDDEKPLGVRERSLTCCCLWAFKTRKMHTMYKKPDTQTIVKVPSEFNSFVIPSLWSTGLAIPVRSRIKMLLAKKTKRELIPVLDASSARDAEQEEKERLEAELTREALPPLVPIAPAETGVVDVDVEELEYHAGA
Format: biochemical
Conditions: wt SFV nsP1, 100 μM SAM, inhibitor 50 μM to 1 mM, Fig. 3A
Property Measured: Inhibition of formation of the covalent [32P]m7GMP-nsP1 complex

- Given Smiles: "CCNc1nc(C)cc(N2CCN(C(=O)c3ccc(F)cc3)CC2)n1"
  Val: "completely blocked"
- Given Smiles: "CCNc1nc(C)cc(N2CCN(C(=O)c3ccc(C)cc3)CC2)n1"
  Val: "completely blocked"

---

Recorded Fold resistance, rCHIKV P34S by entry
test system: rCHIKV P34S; format: cell-based, Chikungunya virus; conditions: (EC50 for the variant)/(EC50 for the wt)
Simply state the number, no unit and no words.

- Molecule: "CCNc1nc(C)cc(N2CCN(C(=O)c3ccc(C)cc3)CC2)n1"
  Fold resistance, rCHIKV P34S: 20.8
- Molecule: "CCNc1nc(C)cc(N2CCN(C(=O)c3ccc(F)cc3)CC2)n1"
  Fold resistance, rCHIKV P34S: 14.4

Exercise: # Fold resistance, rCHIKV P34S lookup, item NC(=O)c1nc(F)c[nH]c1=O [Favipiravir, reference compound]
Solution: 1.2

Exercise: Continue with CCC1=NC2C(N=NN2c2cccc(OC(C)C)c2)C(=O)N1 (stereo not drawn)
Solution: 9.3

Exercise: Continue with Nc1ncnc2c1ncn2C1C(F)=C(CCO)C(O)C1O (stereo not drawn)
Solution: 2.4
